# Measured target: PD-1/PD-L1 (Homo sapiens, UniProt Q9NZQ7)
# Sequence (Q9NZQ7 19-238 limits assumed): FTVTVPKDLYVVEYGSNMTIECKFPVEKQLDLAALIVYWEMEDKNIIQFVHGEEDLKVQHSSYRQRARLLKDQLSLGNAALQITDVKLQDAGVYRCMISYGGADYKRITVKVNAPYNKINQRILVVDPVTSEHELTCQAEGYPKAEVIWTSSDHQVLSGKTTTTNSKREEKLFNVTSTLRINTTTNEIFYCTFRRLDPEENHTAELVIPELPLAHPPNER
# Procedure details: TR-FRET PD-1/PD-L1 binding inhibition at the molecular level (free proteins)
# Condition parameters: Tag1-PD-L1 and Tag2-PD-1 proteins, twelve concentrations from 200 nM, 2 hours at room temperature, read-out: FRET assay (IC50)

| Compound | IC50 |
| --- | --- |
| COc1cc(C(=O)Nc2cccc(-c3cccc(NC(=O)c4cc5n(n4)CCCC5NCC(=O)O)c3Cl)c2Cl)cc(F)c1CN1CC[C@@H](O)C1 (stereo partly drawn) | < 0.01 µM |
| COc1cc(-c2cccc(-c3cccc(NC(=O)c4cc5n(n4)CCC[C@@H]5NCC(=O)O)c3Cl)c2Cl)cc(F)c1CN1CC[C@@H](O)C1 | < 0.01 µM |
| Cc1c(Nc2nccc3cc(CN4CC[C@@H](O)C4)cnc23)cccc1-c1cccc(NC(=O)c2cc3n(n2)CCCC3N2CCC(O)CC2)c1Cl (stereo partly drawn) | 0.01 to 0.1 µM |
| Cc1c(NC(=O)c2cc3n(n2)CCC[C@H]3N2CC[C@@H](C(=O)O)C2)cccc1-c1cccc(Nc2nc(C(F)F)nc3cc(CN4CC[C@@H](O)C4)cnc23)c1C | < 0.01 µM |
| Cc1c(NC(=O)c2ccc(CN3CC[C@@H](O)C3)cn2)cccc1-c1cccc(NC(=O)c2cc3n(n2)CCC[C@@H]3NCCO)c1C | < 0.01 µM |
| Cc1c(NC(=O)c2ccc(CNCCO)cn2)cccc1-c1cccc(NC(=O)c2cc3n(n2)CCCC3NCC(=O)O)c1C (stereo not drawn) | < 0.01 µM |
